- target-system: BLMFL (Homo sapiens, UniProt P54132 1-1417)
- Sequence (P54132 whole entry): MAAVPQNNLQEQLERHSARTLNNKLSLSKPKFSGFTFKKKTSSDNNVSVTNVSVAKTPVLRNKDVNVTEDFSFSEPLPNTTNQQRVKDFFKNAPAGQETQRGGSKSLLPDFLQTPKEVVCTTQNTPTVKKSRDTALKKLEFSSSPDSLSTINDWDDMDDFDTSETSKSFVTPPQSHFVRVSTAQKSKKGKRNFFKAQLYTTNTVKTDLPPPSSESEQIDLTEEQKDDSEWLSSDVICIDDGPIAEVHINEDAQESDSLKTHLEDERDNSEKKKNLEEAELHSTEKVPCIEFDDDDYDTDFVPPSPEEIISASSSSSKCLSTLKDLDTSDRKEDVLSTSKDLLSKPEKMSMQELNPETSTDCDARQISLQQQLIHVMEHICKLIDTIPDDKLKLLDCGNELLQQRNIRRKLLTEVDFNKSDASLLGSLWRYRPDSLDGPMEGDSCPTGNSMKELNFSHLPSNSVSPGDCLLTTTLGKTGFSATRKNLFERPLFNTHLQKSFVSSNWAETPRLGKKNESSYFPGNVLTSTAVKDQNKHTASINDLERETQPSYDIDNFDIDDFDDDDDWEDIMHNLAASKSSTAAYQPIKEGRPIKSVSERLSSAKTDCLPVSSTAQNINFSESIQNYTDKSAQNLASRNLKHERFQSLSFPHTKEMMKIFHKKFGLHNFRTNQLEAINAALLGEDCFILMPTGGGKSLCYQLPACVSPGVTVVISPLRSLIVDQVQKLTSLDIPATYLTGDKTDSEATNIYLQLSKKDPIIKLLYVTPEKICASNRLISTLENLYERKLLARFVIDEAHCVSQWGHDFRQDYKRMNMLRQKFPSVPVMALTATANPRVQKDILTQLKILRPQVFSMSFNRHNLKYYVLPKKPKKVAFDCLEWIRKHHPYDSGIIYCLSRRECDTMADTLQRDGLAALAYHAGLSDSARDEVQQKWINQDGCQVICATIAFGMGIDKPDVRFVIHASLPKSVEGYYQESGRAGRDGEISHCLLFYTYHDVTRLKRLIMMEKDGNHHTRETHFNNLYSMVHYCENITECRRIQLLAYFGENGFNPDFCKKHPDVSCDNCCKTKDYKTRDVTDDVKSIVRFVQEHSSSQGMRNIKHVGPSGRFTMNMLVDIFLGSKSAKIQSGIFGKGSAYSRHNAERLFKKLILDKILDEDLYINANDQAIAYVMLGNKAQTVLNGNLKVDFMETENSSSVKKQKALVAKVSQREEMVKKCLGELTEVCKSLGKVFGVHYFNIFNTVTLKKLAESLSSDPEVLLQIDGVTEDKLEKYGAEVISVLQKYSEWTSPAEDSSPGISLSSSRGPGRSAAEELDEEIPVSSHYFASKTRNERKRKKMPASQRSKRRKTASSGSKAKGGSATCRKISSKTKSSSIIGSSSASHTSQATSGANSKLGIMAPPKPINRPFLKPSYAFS
- procedure-details: competition fluorescence anisotropy; vs ss54-FLU; 5 mM MgCl2; 50 mM Tris-HCl pH 7.5, 50 mM NaCl, 1 mM DTT, 5 mM MgCl2, 50 µg/mL BSA, 25 °C; 10 nM labeled DNA in direct titrations
- conditions-used: protein: recombinant; label: 5'-Cy3 on D3; 20 bp duplex, 3' overhang 21 nt on D3
experimental-readout: Kd (nM)

binder	endpoint-value
3T (Cy3) (dsDNA) DNA 1: TAAGAGCAAGATGTTCTATAAAAGATGTCCTAGCAAGGCAC DNA 2: TATAGAACATCTTGCTCTTA	10
